Ref: patent US6828315B1

Think of 200 °C as a floor: if melting point stands on it or above, it is TRUE; beneath it, FALSE.

| Compound | Class Assignment |
| --- | --- |
| COC(=O)C(c1ccccc1)n1nc(N2CCCC2)n2c3ccc(Br)cc3c(=O)nc12 (stereo not drawn) [Compound 154] | FALSE |
| O=c1c2cc(Cl)ccc2n2c(N3CCCC3)nnc2n1Cc1ccccc1 [Compound 173] | FALSE |
| COC(=O)c1cc(C(=O)Cn2c(=O)c3cc(Cl)ccc3n3c(N4CCCCCC4)nnc23)ccc1OC [Compound 30] | FALSE |
| O=c1nc2n(Cc3cccnc3)nc(N3CCCCCC3)n2c2ccc(Br)cc12 [Compound 139] | FALSE |
| O=C(Cc1ccc(Cn2c(=O)c3cc(Br)ccc3n3c(N4CCCC4)nnc23)cc1)NO [Compound 243] | TRUE |
| C=CCn1nc(N2CCCCCC2)n2c3ccc(Cl)cc3c(=O)nc12 [Compound 110] | FALSE |

---

melting point by entry:

| Compound | melting point [°C] |
| --- | --- |
| Cn1c(=O)c2cc(Cl)ccc2n2c(N3CCCc4ccccc43)nnc12 | 204 |
| COc1ccc(Cn2c(=O)c3cc(Br)ccc3n3c(N4CCCC4)nnc23)cc1 | 169 |
| COc1ccc2c(c1)c(=O)n(Cc1ccccc1)c1nnc(N3CCCC3)n21 | 154 |
| O=c1c2cc(Br)ccc2n2c(N3CCCC3)nnc2n1C/C=C/c1ccc(Cl)cc1 | 187 |
| O=c1c2cc(Br)ccc2n2c(N3CC=CCC3)nnc2n1Cc1ccccc1 | 172 |
| O=c1nc2n(CC=Cc3ccccc3)nc(N3CCCCCC3)n2c2ccccc12 | 176 |
| O=c1c2cc(Br)ccc2n2c(N3CCSCC3)nnc2n1CC=Cc1cccnc1 | 177 |
| N#Cc1ccc2c(c1)c(=O)n(Cc1ccccc1)c1nnc(N3CCCC3)n21 | 219 |
| O=c1c2cc(Cl)ccc2n2c(N3CCCCC3)nnc2n1Cc1ccccc1 | 178 |
| O=c1c2cc(Br)ccc2n2c(N3CCN(c4ccccc4)CC3)nnc2n1Cc1ccccc1 | 238 |
| O=c1c2cc(Br)ccc2n2c(N3CCCC3)nnc2n1CC=Cc1ccccc1 [Compound 58] | 110 |
| O=c1c2cc(Cl)ccc2n2c(N3CCCCCC3)nnc2n1Cc1cccc(Cl)c1 | 157 |
| CN(C)c1nnc2n(Cc3ccc(CC(N)=O)cc3)c(=O)c3cc(Br)ccc3n12 | 268 |
| CN(C)c1nnc2n(Cc3ccccc3)c(=O)c3cc(Br)ccc3n12 | 171 |
| O=c1c2cc(Br)ccc2n2c(N3CCCC3)nnc2n1CC1CCCC1 | 155 |
| Cc1ccc(Cn2c(=O)c3cc(Br)ccc3n3c(N(C)C)nnc23)cc1 | 223 |
| Cc1ccc2c(c1)c(=O)n(Cc1ccc(CC(=O)O)cc1)c1nnc(N3CCCC3)n21 | 262 |

---

Criterion: melting point strictly under 200 °C. Met: criterion met. Not met: criterion not met.

| Compound | Class Assignment |
| --- | --- |
| N#Cc1ccc(Cn2c(=O)c3cc(N)ccc3n3c(N4CCCC4)nnc23)cc1 | criterion met |
| COC(=O)c1ccc(Cn2nc(N3CCCC3)n3c4ccc(Br)cc4c(=O)nc23)cc1 | criterion met |
| Cn1c(=O)c2cc(Cl)ccc2n2c(N3CCOCC3)nnc12 | criterion not met |
| CN(C)c1nnc2n(Cc3ccc(CC(=O)O)cc3)c(=O)c3cc(Br)ccc3n12 | criterion not met |
| CN(C)c1nnc2n(CC=Cc3ccncc3)c(=O)c3cc(Br)ccc3n12 | criterion met |
| CNc1nnc2n(Cc3ccccc3)c(=O)c3cc(Br)ccc3n12 | criterion not met |
| COc1cccc(Cn2nc(N3CCCCCC3)n3c4ccc(Cl)cc4c(=O)nc23)c1 | criterion met |
| CN(C)c1nnc2n(CC#Cc3ccccc3)c(=O)c3cc(Br)ccc3n12 | criterion met |
| CCNc1ccc2c(c1)c(=O)n(Cc1ccccc1)c1nnc(N3CCCC3)n21 | criterion not met |
| N#Cc1ccc(Cn2nc(N3CCCC3)n3c4ccc(Br)cc4c(=O)nc23)cc1 | criterion not met |
| CN(C)c1nnc2n(CC=Cc3ccccc3)c(=O)c3cc(Br)ccc3n12 [Compound 85] | criterion met |
| COc1ccc(Cn2c(=O)c3cc(Cl)ccc3n3c(N4CCCCCC4)nnc23)cc1OC | criterion met |
| O=c1nc2n(Cc3ccc(Cl)c(Cl)c3)nc(N3CCCCCC3)n2c2ccc(Cl)cc12 | criterion not met |
| COC(=O)c1cc(C(=O)Cn2nc(N3CCCCCC3)n3c4ccc(Cl)cc4c(=O)nc23)ccc1OC | criterion met |
| Cn1c(=O)c2cc(Cl)ccc2n2c(N3CCCCC3)nnc12 | criterion met |
| O=c1nc2n(Cc3ccc(F)cc3)nc(N3CCCCCC3)n2c2ccc(Cl)cc12 | criterion not met |
| O=c1c2cc(Br)ccc2n2c(N3CCCCCC3)nnc2n1C/C=C/c1cccnc1 | criterion met |
| O=c1c2cc(Br)ccc2n2c(N3CCOCC3)nnc2n1Cc1ccccc1 | criterion met |
| CN(C)c1nnc2n(Cc3cccnc3)c(=O)c3cc(Br)ccc3n12 | criterion met |

---

- Experimental Target: type 4 phosphodiesterases (PDE4)
- Test Name: Inhibition of the phosphodiesterase (PDE4), enzymatic preparation from line U937
- Reported Conditions: PDE4 from cytosolic preparation of human cell line U937
pIC50: −log10 of the molar value.
Result Type: pIC50

| Sample Smiles | Result Type | Value Observed |
| --- | --- | --- |
| O=c1c2cc(Br)ccc2n2c(N3CCCC3)nnc2n1Cc1ccc(F)cc1 | pIC50 | 7.05 |
| CN(C)c1nnc2n(C/C=C/c3cccnc3)c(=O)c3cc(Br)ccc3n12 | pIC50 | 7.10 |
| COc1ccc(Cn2c(=O)c3cc(Br)ccc3n3c(N4CCCC4)nnc23)cc1 | pIC50 | 7.10 |
| COc1ccc(Cn2c(=O)c3cc(Br)ccc3n3c(N4CCCC4)nnc23)cc1OC | pIC50 | 7.52 |
| COC(=O)c1ccc(Cn2c(=O)c3cc(Br)ccc3n3c(N4CCCC4)nnc23)cc1 | pIC50 | 7.30 |
| CNC(=O)Cc1ccc(Cn2c(=O)c3cc(Br)ccc3n3c(N4CCCC4)nnc23)cc1 | pIC50 | 7.89 |
| O=c1c2cc(Br)ccc2n2c(N3CCCC3)nnc2n1Cc1ccccc1 | pIC50 | 7.05 |
| Cc1ccc(Cn2c(=O)c3cc(Br)ccc3n3c(N4CCCC4)nnc23)cc1 | pIC50 | 7.62 |
| O=c1c2cc(Br)ccc2n2c(N3CCCCC3)nnc2n1CC=Cc1ccccc1 | pIC50 | 7.15 |
| Nc1ccc2c(c1)c(=O)n(C/C=C/c1ccccc1)c1nnc(N3CCCC3)n21 | pIC50 | 7.92 |
| O=c1c2cc(Br)ccc2n2c(N3CCCCCC3)nnc2n1CC=Cc1ccccc1 | pIC50 | 7.82 |
| CNc1ccc2c(c1)c(=O)n(Cc1ccc(C#N)cc1)c1nnc(N3CCCC3)n21 | pIC50 | 9.57 |

---

Assign labels as follows, please: yes (1) for melting point below 200 °C; no (0) for melting point equal to or exceeding 200 °C.

| Sample Smiles | Class Assignment |
| --- | --- |
| Cn1c(=O)c2cc(Cl)ccc2n2c(N3CCCCCC3)nnc12 | yes (1) |
| CN1CCN(c2nnc3n(Cc4ccccc4)c(=O)c4cc(Br)ccc4n23)CC1 | no (0) |
| O=c1c2cc(Br)ccc2n2c(N3CCCCCC3)nnc2n1Cc1ccc(Cl)cc1 | yes (1) |
| Cc1ccc2c(c1)c(=O)n(Cc1cccnc1)c1nnc(N3CCCCCC3)n21 | yes (1) |

---

Property: melting point; scope: individual compounds

| Sample Smiles | melting point [°C] |
| --- | --- |
| O=c1c2cc(Cl)ccc2n2c(N3CCCCCC3)nnc2n1Cc1ccc(C(F)(F)F)cc1 | 138 |
| COc1ccc(C=CCn2c(=O)c3cc(Br)ccc3n3c(N4CCCCCC4)nnc23)cc1 | 129 |

---

Listed next: entries and their corresponding melting point.

| Molecule | melting point |
| --- | --- |
| COc1cc(Cn2nc(N3CCCC3)n3c4ccc(Br)cc4c(=O)nc23)cc(OC)c1 [Compound 150] | 168 °C |
| O=c1c2cc(Br)ccc2n2c(N3CCCC3)nnc2n1CC(F)(F)F [Compound 67] | 202 °C |
| O=c1c2cc(Br)ccc2n2c(N3CCCCCC3)nnc2n1CC=Cc1ccccc1 [Compound 37] | 155 °C |
| N#Cc1ccc(Cn2nc(N3CCCCCC3)n3c4ccc(Br)cc4c(=O)nc23)cc1 [Compound 136] | 293 °C |

---

Quick reference: melting point of the listed items.
Result Type: melting point (°C)

| Sample Smiles | Value Observed |
| --- | --- |
| Cn1c(=O)c2cc(I)ccc2n2c(N3CCCCCC3)nnc12 | 206 |
| O=c1nc2n(C/C=C/c3ccccc3)nc(N3CCCCCC3)n2c2ccc(Br)cc12 | 198 |
